Origin of the recorded values: paper PMC5897741

Target: NDM-1 (Klebsiella pneumoniae)
Experiment: ITC multi-injection inhibition assay
Type: biochemical
Parameters: made in house; host or cells: E. coli
Conditions: pH 7.0
assay.endpoint: mode of inhibition

1. O=C(O)/C=C/C(=O)O [Compound 6, fumaric acid]
mainly competitive
2. O=C(O)[C@@H](O)[C@H](O)C(=O)O [Compound 5, D-(−)-tartaric acid]
mainly competitive

====

Molecular target: NDM-1 (Klebsiella pneumoniae, UniProt C7C422)
Sequence (C7C422 29-270 limits assumed): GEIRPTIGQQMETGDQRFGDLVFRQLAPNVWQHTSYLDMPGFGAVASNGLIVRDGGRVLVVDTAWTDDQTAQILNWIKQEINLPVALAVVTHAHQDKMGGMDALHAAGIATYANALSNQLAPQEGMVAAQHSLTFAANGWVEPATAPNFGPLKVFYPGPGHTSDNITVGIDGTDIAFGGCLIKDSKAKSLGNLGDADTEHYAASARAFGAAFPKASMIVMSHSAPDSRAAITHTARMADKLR
Assay: ITC multi-injection inhibition assay
Format: biochemical
Set-up: made in house; host or cells: E. coli
Conditions: ITC inhibition assay, penicillin G, 25°C, 50 mM Tris–HCl, pH 7.0, 100 mM NaCl
For each of the molecules below, state its Kiu (uncompetitive inhibition constant).
Give bare numbers, in µM.

1. C[C@H](CS)C(=O)N1CCC[C@@H]1C(=O)O [Compound 1, D-Captopril, reference compound]
178
2. O=C(O)c1cccc(C(=O)O)n1 [Compound 7, pyridine-2,6-dicarboxylic acid]
2.07
3. O=C(O)/C=C/C(=O)O [Compound 6, fumaric acid]
638

Can you give me Kiu (uncompetitive inhibition constant) for all of these, one by one?
1. O=C(O)[C@H]1CS[C@@H](C(=O)O)N1 (racemic) [Compound 8, rac-thiazolidine-2,4-dicarboxylic acid]
2. O=C(O)[C@@H](O)[C@H](O)C(=O)O [Compound 5, D-(−)-tartaric acid]

5
993
